Molecular target: Peptidoglycan-N-acetylglucosamine deacetylase BC_1974 (Bacillus cereus (strain ATCC 14579 / DSM 31 / JCM 2152 / NBRC 15305 /NCIMB 9373 / NRRL B-3711), UniProt Q81EJ6)
Sequence (Q81EJ6 whole entry): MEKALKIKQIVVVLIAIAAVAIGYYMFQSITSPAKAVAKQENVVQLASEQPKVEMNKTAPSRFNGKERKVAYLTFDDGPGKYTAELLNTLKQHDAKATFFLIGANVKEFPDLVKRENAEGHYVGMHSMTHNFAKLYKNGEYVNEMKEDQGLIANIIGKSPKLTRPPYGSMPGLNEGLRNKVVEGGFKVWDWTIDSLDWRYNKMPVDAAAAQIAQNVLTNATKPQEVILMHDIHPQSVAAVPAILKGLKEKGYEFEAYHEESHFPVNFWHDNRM
Experiment: Inhibition of recombinant Bacillus cereus BC1974 expressed in Escherichia coli using GlcNAc5 as substrate measured after 5 mins by fluorescamine based fluorescence assay
Property name: pIC50
Kindly note that pIC50 refers to -log10 of the concentration in mol/L and answer with the value alone.

Enquiry: Param item = O=C(NO)c1ccc(-c2cccc3ccccc23)cc1 ; retrieve measured pIC50.
Return: 4.36

====

Target: Peptidoglycan-N-acetylglucosamine deacetylase BC_1960 (Bacillus cereus (strain ATCC 14579 / DSM 31 / JCM 2152 / NBRC 15305 /NCIMB 9373 / NRRL B-3711), UniProt Q81EK9)
Experiment: Inhibition of recombinant Bacillus cereus BC1960 expressed in Escherichia coli using GlcNAc5 as substrate measured after 10 mins by fluorescamine based fluorescence assay
Property name: pIC50
Kindly note that pIC50 refers to -log10 of the concentration in mol/L and answer with the value alone.

Enquiry: Param item = O=C(NO)c1ccc(-c2cccc3ccccc23)cc1 ; retrieve measured pIC50.
Return: 3.88

====

Biological target: Peptidoglycan-N-acetylglucosamine deacetylase BC_1960 (Bacillus cereus (strain ATCC 14579 / DSM 31 / JCM 2152 / NBRC 15305 /NCIMB 9373 / NRRL B-3711))
Sequence (Q81EK9 whole entry): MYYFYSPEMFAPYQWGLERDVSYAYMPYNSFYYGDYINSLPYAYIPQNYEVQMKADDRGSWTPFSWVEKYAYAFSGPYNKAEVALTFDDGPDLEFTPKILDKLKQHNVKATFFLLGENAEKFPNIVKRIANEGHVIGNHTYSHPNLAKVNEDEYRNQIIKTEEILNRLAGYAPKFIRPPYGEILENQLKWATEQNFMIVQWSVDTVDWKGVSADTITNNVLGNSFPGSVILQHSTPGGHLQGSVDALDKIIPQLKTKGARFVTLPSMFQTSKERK
Test: Competitive inhibition of recombinant Bacillus cereus BC1960 expressed in Escherichia coli using varying levels of GlcNAc5 as substrate measured after 10 mins in presence of fluorescamine by Line-weaver burk plot analysis
Settings: read-out: Ki(app)
Property name: Ki (µM)
Just the number in µM, nothing appended.

Enquiry: Param item = O=C(NO)c1ccc(-c2cccc3ccccc23)cc1 ; retrieve measured Ki.
Return: 66
